molecular target: canine TRPM8 (Canis lupus familiaris); construct: expressed in transfected cells; assay: In Vitro Canine TRPM8 Functional Assay (intracellular Ca2+ fluorescence, icilin activation, HEK293 cells); type: cell-based; conditions: HEK293, 0.2 μM test compound; individually measured values; read-out: % Inh (%) @0.2 μM, in vitro TRP M8 Activity
Where a name gives a salt, the structure may show the parent alone.
measurement name: inhibition at 0.2 µM (%)

The examples below pair each entry with its known result.
>  <compound>
Cl.Cn1nc(C(C)(C)C)c(Cl)c1-c1nc2cc(-c3c(F)cccc3F)cc(Cl)c2[nH]1 [Compound 112, hydrochloride]

>  <inhibition at 0.2 µM, %>
99

$$$$
>  <compound>
Cc1c(C(C)(C)C)nn(C)c1-c1nc2cc(-c3ccccc3F)cc(Cl)c2[nH]1 [Compound 133, hydrochloride]

>  <inhibition at 0.2 µM, %>
99

$$$$
>  <compound>
CC(CO)n1nc(C(C)(C)C)cc1-c1nc2cc(-c3ccccc3C(F)(F)F)ccc2[nH]1 (stereo not shown) [Compound 101, hydrochloride]

>  <inhibition at 0.2 µM, %>
33

$$$$
>  <compound>
Cn1nc(C(C)(C)C)c(Cl)c1-c1nc2cc(-c3c(F)cccc3OC(F)(F)F)cc(Cl)c2[nH]1 [Compound 130, hydrochloride]

>  <inhibition at 0.2 µM, %>
100

$$$$
>  <compound>
Cl.Cn1nc(C(C)(C)C)c(C#N)c1-c1nc2cc(-c3ccccc3Cl)cc(C(F)(F)F)c2[nH]1 [Compound 148, hydrochloride]

>  <inhibition at 0.2 µM, %>
100

$$$$

I: Cc1nc(C(C)(C)C)oc1-c1nc2cc(-c3ccccc3F)cc(C(F)(F)F)c2[nH]1 [Compound 175, hydrochloride]
II: Cl.Cn1nc(C(C)(C)C)c(Cl)c1-c1nc2cc(-c3ccccc3C(F)(F)F)cc(Cl)c2[nH]1 [Compound 116, hydrochloride]
Kindly identify the item with the lower inhibition at 0.2 µM figure among these two: I and II Which one? Tell me its label.
I
(I: 48%, II: 99%)

---

molecular target: canine TRPM8 (Canis lupus familiaris, UniProt Q1A7N1); construct: expressed in transfected cells; experiment: In Vitro Canine TRPM8 Functional Assay (intracellular Ca2+ fluorescence, icilin activation, HEK293 cells); format: cell-based; conditions: HEK293 cells expressing canine TRPM8, icilin activation; individually measured values (batches/salt forms); read-out: IC50 (nM), in vitro TRP M8 Activity
Sequence (Q1A7N1 1-1104): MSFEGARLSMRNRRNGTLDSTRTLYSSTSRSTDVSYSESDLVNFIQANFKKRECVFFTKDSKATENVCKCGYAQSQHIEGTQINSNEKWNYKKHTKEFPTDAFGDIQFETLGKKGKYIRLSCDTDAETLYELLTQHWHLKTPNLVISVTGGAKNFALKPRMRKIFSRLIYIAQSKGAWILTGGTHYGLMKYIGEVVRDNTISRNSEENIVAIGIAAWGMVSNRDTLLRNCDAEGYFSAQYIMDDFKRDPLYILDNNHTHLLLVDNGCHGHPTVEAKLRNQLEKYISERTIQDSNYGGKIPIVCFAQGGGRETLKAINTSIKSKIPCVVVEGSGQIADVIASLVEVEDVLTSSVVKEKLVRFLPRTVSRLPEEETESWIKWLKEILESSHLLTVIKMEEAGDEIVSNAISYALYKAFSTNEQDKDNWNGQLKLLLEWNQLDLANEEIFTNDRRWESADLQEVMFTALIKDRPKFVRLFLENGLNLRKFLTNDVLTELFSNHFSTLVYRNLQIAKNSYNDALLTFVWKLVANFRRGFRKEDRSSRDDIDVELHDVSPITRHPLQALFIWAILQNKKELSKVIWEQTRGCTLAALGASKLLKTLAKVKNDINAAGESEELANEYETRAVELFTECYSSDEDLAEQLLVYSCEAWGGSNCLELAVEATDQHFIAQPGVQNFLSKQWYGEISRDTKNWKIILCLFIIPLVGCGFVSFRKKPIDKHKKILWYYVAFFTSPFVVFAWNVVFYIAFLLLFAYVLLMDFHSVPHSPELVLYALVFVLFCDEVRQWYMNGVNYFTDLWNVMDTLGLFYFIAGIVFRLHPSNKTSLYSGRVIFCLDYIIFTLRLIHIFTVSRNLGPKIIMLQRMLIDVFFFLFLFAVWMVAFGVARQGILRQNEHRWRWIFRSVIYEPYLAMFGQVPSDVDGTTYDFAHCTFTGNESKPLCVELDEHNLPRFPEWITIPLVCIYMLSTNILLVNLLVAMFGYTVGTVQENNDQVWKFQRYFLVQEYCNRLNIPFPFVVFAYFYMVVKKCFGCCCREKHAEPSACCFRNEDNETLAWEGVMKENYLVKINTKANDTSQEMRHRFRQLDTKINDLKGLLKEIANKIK
Counter-ions that a name gives are not always drawn.
measurement name: IC50 (nM)

// solved cases for IC50 follow
>  <compound>
Cn1nc(C(C)(C)C)c(C#N)c1-c1nc2cc(-c3ccccc3OC(F)(F)F)cc(Cl)c2[nH]1 [Compound 170, sodium salt]

>  <unit abbrev>
nM

>  <IC50>
12.4

$$$$
>  <compound>
Cn1nc(C(C)(C)C)c(C(F)(F)F)c1-c1nc2cc(-c3ccccc3Cl)cc(C(F)(F)F)c2[nH]1 [Compound 186, sodium salt]

>  <unit abbrev>
nM

>  <IC50>
20

$$$$
>  <compound>
CC(C)(C)c1cc(-c2nc3cc(-c4ccccc4C#N)ccc3[nH]2)on1 [Compound 69, trifluoroacetic acid salt]

>  <unit abbrev>
nM

>  <IC50>
20.5

$$$$
>  <compound>
CC(C)(C)Cc1cc(-c2nc3ccc(-c4ccccc4C(F)(F)F)cc3[nH]2)on1 [Compound 20, hydrochloride]

>  <unit abbrev>
nM

>  <IC50>
19

$$$$
>  <compound>
Cn1nc(C(C)(C)C)c(C#N)c1-c1nc2cc(-c3ccccc3F)cc(Cl)c2[nH]1 [Compound 167, sodium salt]

>  <unit abbrev>
nM

>  <IC50>
9.8

$$$$
>  <compound>
Cn1nc(C2(C)CC2)cc1-c1nc2cc(-c3ccccc3OC(F)(F)F)ccc2[nH]1 [Compound 53, sodium salt]

>  <unit abbrev>
nM

>  <IC50>
41.7

$$$$
>  <compound>
Cn1nc(C(F)(F)F)cc1-c1nc2cc(-c3ccccc3C(F)(F)F)ccc2[nH]1 [Compound 40, sodium salt]

>  <unit abbrev>
nM

>  <IC50>
81.5

$$$$
>  <compound>
Cc1ccccc1-c1ccc2[nH]c(-c3cc(C(C)(C)C)nn3C)nc2c1 [Compound 55, trifluoroacetic acid salt]

>  <unit abbrev>
nM

>  <IC50>
5.5

$$$$
>  <compound>
Cn1nc(C2CCC2)cc1-c1nc2cc(-c3ccccc3OC(F)(F)F)ccc2[nH]1 [Compound 38, sodium salt]

>  <unit abbrev>
nM

>  <IC50>
55.8

$$$$
>  <compound>
CC(C)(C)c1cc(-c2nc3cc(-c4c(F)cccc4OC(F)(F)F)ccc3[nH]2)on1 [Compound 103, hydrochloride]

>  <unit abbrev>
nM

>  <IC50>
4.5

$$$$

P: Cn1nc2c(c1-c1nc3cc(-c4ccccc4OC(F)(F)F)ccc3[nH]1)CCCC2(C)C [Compound 31, sodium salt]
Q: COc1cccc(F)c1-c1ccc2[nH]c(-c3cc(C(C)(C)C)no3)nc2c1 [Compound 64, trifluoroacetic acid salt]
R: COc1cccc(OC)c1-c1ccc2[nH]c(-c3cc(C(C)(C)C)nn3C)nc2c1 [Compound 54, trifluoroacetic acid salt]
S: Cc1c(C(C)(C)C)noc1-c1nc2cc(-c3c(F)cccc3F)ccc2[nH]1 [Compound 109, hydrochloride]
With regard to IC50, arrange the entries in ascending order, please. # answer = labels listed in requested order
R, Q, S, P
